The entries below come with measured normalised viability values attached.
# System: MFM-223
# measurement-description: normalised viability (% of control), CellTiter-Blue; higher = more viable cells (about 100 = DMSO control)
# condition: 1000 nM; incubation time: 72 h
Entry rule: numbers only, all in %.

Would you please look over these solved cases?
[
  {
    "molecule": "CC(C)(C#N)c1cc(Cn2cncn2)cc(C(C)(C)C#N)c1",
    "metric": "normalised viability",
    "numeric-value": 90.4
  },
  {
    "molecule": "CN1CCN(CCOc2cc(OC3CCOCC3)c3c(Nc4c(Cl)ccc5c4OCO5)ncnc3c2)CC1",
    "metric": "normalised viability",
    "numeric-value": 102
  },
  {
    "molecule": "CCCCCCCCc1ccc(CCC(N)(CO)CO)cc1",
    "metric": "normalised viability",
    "numeric-value": 106
  }
]

Form field - read-out: normalised viability; system: MFM-223; submitted item: CN(C)CCN1C(=O)c2cccc3cc(N)cc(c23)C1=O [Amonafide]
99.3
